Please go through the items and note down their pIC50.
Assay System: NaV1.7 (Homo sapiens, UniProt Q15858)
Construct: expressed in transfected cells; host or cells: HEK293 (tetracycline-inducible)
Sequence (Q15858 whole entry): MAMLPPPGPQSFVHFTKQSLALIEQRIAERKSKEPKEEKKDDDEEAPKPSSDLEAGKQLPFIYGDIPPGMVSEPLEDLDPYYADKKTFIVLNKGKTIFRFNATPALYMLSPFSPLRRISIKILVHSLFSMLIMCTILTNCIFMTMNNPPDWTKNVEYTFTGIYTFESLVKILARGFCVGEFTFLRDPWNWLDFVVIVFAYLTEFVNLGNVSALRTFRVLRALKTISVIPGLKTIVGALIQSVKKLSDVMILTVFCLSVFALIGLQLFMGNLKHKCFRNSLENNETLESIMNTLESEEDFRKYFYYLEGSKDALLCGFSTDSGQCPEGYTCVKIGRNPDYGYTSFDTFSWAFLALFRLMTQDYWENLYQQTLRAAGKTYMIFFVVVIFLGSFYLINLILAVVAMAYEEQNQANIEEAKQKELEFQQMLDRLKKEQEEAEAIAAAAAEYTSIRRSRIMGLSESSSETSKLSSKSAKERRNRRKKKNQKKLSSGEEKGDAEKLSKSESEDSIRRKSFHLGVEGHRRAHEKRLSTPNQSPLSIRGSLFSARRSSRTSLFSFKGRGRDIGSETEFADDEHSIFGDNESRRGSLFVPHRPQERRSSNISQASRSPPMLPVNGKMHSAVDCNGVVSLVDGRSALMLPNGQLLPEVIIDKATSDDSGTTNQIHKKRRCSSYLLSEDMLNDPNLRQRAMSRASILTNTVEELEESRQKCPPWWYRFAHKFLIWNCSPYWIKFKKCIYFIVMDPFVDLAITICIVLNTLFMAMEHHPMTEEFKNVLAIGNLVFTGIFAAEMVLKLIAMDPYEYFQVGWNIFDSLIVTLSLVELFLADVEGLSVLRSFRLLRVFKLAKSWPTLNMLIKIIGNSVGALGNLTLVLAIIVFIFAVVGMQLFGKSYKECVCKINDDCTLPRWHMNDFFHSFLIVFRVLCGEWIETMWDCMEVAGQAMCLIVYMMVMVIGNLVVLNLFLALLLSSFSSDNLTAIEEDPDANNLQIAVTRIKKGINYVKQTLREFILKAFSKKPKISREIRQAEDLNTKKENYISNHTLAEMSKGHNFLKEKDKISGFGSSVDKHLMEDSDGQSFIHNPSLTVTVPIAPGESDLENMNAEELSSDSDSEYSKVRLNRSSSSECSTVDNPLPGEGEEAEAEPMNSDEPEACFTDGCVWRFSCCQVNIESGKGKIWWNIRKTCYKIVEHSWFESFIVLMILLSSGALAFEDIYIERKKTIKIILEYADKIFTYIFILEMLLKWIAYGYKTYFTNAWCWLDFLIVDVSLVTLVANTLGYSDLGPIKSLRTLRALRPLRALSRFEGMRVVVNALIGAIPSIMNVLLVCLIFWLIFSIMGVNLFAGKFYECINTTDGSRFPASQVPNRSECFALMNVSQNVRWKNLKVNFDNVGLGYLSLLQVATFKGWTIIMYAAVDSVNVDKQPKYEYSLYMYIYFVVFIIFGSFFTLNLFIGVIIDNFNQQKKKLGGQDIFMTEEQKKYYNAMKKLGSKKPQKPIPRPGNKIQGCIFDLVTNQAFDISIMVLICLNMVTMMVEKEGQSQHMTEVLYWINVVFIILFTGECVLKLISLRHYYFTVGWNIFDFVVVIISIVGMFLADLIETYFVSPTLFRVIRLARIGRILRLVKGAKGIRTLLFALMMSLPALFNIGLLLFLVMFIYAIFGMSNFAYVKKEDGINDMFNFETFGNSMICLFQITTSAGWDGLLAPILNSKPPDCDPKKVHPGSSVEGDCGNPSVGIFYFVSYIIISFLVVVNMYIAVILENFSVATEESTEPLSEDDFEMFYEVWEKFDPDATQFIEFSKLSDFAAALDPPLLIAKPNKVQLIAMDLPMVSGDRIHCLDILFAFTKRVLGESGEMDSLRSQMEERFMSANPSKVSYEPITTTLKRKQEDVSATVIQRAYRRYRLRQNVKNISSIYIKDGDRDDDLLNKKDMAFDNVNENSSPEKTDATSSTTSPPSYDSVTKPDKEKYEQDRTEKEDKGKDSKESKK
Experimental Protocol: Automated patch clamp (Qube 384), external block of NaV1.7
Type: cell-based
Condition Notes: IC50, compound in external solution, HEK293 cells, read-out: Nav1.7 Extracellular Inhibition
pIC50: −log10 of the molar value.

Q. Record lookup: for NaV1.7 (Homo sapiens, UniProt Q15858), what pIC50 belongs to CCCNC(=O)C1CCC[N+](CC(=O)Nc2c(C)cccc2C)(Cc2ccccc2)C1 (stereo not shown) [Compound 57A] ?
A. 5.00 to 5.52

Q. Give NaV1.7 (Homo sapiens, UniProt Q15858) pIC50 for Cc1cccc(C)c1NC(=O)C[N+]1(Cc2ccccc2)CCCC(C(=O)N2CCCC2)C1 (stereo not shown) [Compound 62A]
A. < 5.00

Q. Report pIC50 for CCCOC(=O)N1CCC[N+](CC(=O)Nc2c(C)cccc2C)(Cc2ccccc2)CC1.[Br-] (stereo not shown) [Compound 68A] tested on NaV1.7 (Homo sapiens, UniProt Q15858).
A. < 5.00

Q. Report pIC50 for CCCOC(=O)C1CCC[N+](CC(=O)Nc2c(C)cccc2C)(Cc2ccccc2)C1.[Br-] (stereo not shown) [Compound 47A] tested on NaV1.7 (Homo sapiens, UniProt Q15858).
A. 5.52 to 6.00

###

Assay System: NaV1.7 (Homo sapiens, UniProt Q15858)
Construct: expressed in transfected cells; host or cells: HEK293 (tetracycline-inducible)
Experimental Protocol: Manual patch clamp, internal block of NaV1.7 current
Type: cell-based
Condition Notes: % inhibition at 10 μM test concentration, compound in internal solution, HEK293 cells, read-out: Nav1.7 Intracellular Inhibition
Measure Name: inhibition at 10 µM

Q. What inhibition at 10 µM value was documented for this molecule, CCC(C(=O)Nc1c(C)cccc1C)[N+]1(Cc2ccc(Cl)cc2)CCCCC1 (stereo not shown) [Compound 10A] ?
A. 70 to 95%

Q. Quick one: inhibition at 10 µM for COC(=O)c1ccccc1C[N+]1(CC(=O)Nc2c(C)cccc2C)CCCCC1.[Br-] [Compound 37A] ?
A. 70 to 95%

Q. Which inhibition at 10 µM is reported for this molecule? CCC(C(=O)Nc1c(C)cccc1C)[N+]1(Cc2cccc(Cl)c2)CCCCC1 (stereo not shown) [Compound 11A]
A. > 95%

Q. I have this molecule here, CCC(C(=O)Nc1c(C)cccc1C)[N+]1(Cc2cccc(C)c2)CCCCC1 (stereo not shown) [Compound 17A] , and I need its recorded inhibition at 10 µM.
A. > 95%

Q. Request the reported inhibition at 10 µM associated with CCC(C(=O)Nc1c(C)cccc1C)[N+]1(Cc2cccc(OC)c2)CCCCC1 (stereo not shown) [Compound 23A]
A. 70 to 95%

Q. // inhibition at 10 µM lookup, key: CCC(C(=O)Nc1c(C)cccc1C)[N+]1(Cc2cc(C)on2)CCCCC1 (stereo not shown) [Compound 27A]
A. 70 to 95%

Q. Consider the molecule CCCCNc1cc(C)c(NC(=O)C(CC)[N+]2(Cc3ccccc3)CCCCC2)c(C)c1 (stereo not shown) [Compound 43A] and give its measured inhibition at 10 µM.
A. 70 to 95%

Q. Request the reported inhibition at 10 µM associated with Cc1cccc(C)c1OCC[N+]1(Cc2ccccc2)CCCCCC1 [Compound 85A]
A. > 95%

Q. Item under review: CCC(C(=O)Nc1c(C)cccc1C)[N+]1(Cc2ccccc2Cl)CCCCC1 (stereo not shown) [Compound 12A] . Reported inhibition at 10 µM?
A. > 95%

Q. // lookup inhibition at 10 µM for CCC(C(=O)Nc1c(C)cccc1C)[N+]1(Cc2ccccc2C)CCCCC1 (stereo not shown) [Compound 18A]
A. 70 to 95%

Q. // inhibition at 10 µM lookup, key: CCCCN(C(=O)OC(C)(C)C)c1ccc(NC(=O)C[N+]2(Cc3ccccc3)CCCCCC2)cc1 [Compound 40A]
A. 40 to 70%

Q. Param item = CCC(C(=O)Nc1c(C)cc(C)cc1C)[N+]1(Cc2ccccc2)CCCCC1.[Br-] (stereo not shown) [Compound 39A] ; retrieve measured inhibition at 10 µM.
A. 70 to 95%

Q. // lookup inhibition at 10 µM for CCC(C(=O)Nc1c(C)cccc1C)[N+]1(Cc2ccc(C)cc2)CCCCC1 (stereo not shown) [Compound 16A]
A. > 95%

###

I'd appreciate it if you could supply IC50 values for the items below.
Assay System: NaV1.7 (Homo sapiens, UniProt Q15858)
Construct: expressed in transfected cells; host or cells: HEK293 (tetracycline-inducible)
Experimental Protocol: Automated patch clamp (Qube 384), external block of NaV1.7
Assay type: cell-based
Condition Notes: IC50, compound in external solution, HEK293 cells, read-out: Nav1.7 Extracellular Inhibition

Q. IC50 for CCOc1cccc(C)c1NC(=O)C[N+]1(Cc2ccccc2)CCCCCC1.[Br-] [Compound 77A] ?
A. 1 to 3 µM

Q. Find the recorded IC50 belonging to Cc1cccc(C)c1NC(=O)C[N+]1(Cc2ccccc2)CCCC(F)(F)C1.[Br-] (centres unmarked) [Compound 32A] and report it.
A. > 10 µM

Q. So what does the record say about IC50 for Cc1cccc(C)c1NC(=O)C[N+]1(Cc2ccccc2)CCCC(C(=O)OC2CCCCC2)C1.[Br-] (centres unmarked) [Compound 51A] ?
A. 3 to 10 µM

Q. Looking for the measured IC50 of COC(=O)c1ccccc1C[N+]1(CC(=O)Nc2c(C)cccc2C)CCCCC1.[Br-] [Compound 37A] , can you help?
A. > 10 µM

Q. Data request, read-out IC50, for CCOC(=O)C1CCC[N+](CC(=O)Nc2c(C)cccc2C)(Cc2ccccc2)C1.[Br-] (centres unmarked) [Compound 45A]
A. > 10 µM

Q. Would you mind telling me what IC50 value was observed for Cc1cccc(C)c1OC(=O)C[N+]1(Cc2ccccc2)CCCCCC1 [Compound 83A, 2,2,2-trifluoroacetate] ?
A. 1 to 3 µM

Q. Would you mind telling me what IC50 value was observed for Cc1cccc(C)c1N1CCCC([N+]2(Cc3ccccc3)CCCCC2)C1=O (centres unmarked) [Compound 92A] ?
A. > 10 µM

Q. What value of IC50 has been reported for the following compound? Cc1cccc(C)c1N1CCC([N+]2(Cc3ccccc3)CCCCC2)C1=O.[Br-] (centres unmarked) [Compound 89A]
A. > 10 µM

###

Assay System: NaV1.7 (Homo sapiens, UniProt Q15858)
Construct: expressed in transfected cells; host or cells: HEK293 (tetracycline-inducible)
Experimental Protocol: Automated patch clamp (Qube 384), external block of NaV1.7
Type: cell-based
Condition Notes: IC50, compound in external solution, HEK293 cells, read-out: Nav1.7 Extracellular Inhibition
Counter-ions that a name gives are not always drawn.
Would you kindly list IC50 for each of these compounds?

Q. Recorded IC50 for Br.CCCCOC(=O)C1CCC[N+](CC(=O)Nc2c(C)cccc2C)(Cc2ccccc2)C1 (centres unmarked) [Compound 49A] , please?
A. 3 to 10 µM

Q. State the recorded IC50 for this entry: Cc1cccc(C)c1NC(=O)C[N+]1(Cc2ccccc2)CCCC(C(=O)N2CCCCCC2)C1 (centres unmarked) [Compound 64A]
A. 3 to 10 µM

Q. Which IC50 is listed for Cc1cccc(C)c1S(=O)(=O)CC[N+]1(Cc2ccccc2)CCCCCC1 [Compound 88A] ?
A. > 10 µM

Q. Consider the compound Cc1cccc(C)c1C(=O)OCC[N+]1(Cc2ccccc2)CCCCCC1.[Br-] [Compound 82A] and give its measured IC50.
A. 3 to 10 µM

Q. Field request: IC50 | item: CCC(C(=O)Nc1c(C)cccc1C)[N+]1(Cc2ccccc2)CCCCC1 (centres unmarked)
A. > 10 µM

Q. Requested read-out: IC50. Entry: Cc1cccc(C)c1N(C)C(=O)C[N+]1(Cc2ccccc2)CCCCCC1 [Compound 38A, formate]
A. > 10 µM

Q. What IC50 value was documented for this compound, Cc1cccc(C)c1NC(=O)C[N+]1(Cc2ccccc2)CCCC(C(=O)OC(C)C)C1 (mixture of isomers) [Compound 46A, trifluoroacetate salt] ?
A. 3 to 10 µM

Q. What IC50 value was documented for this compound, Cc1cccc(F)c1NC(=O)C[N+]1(Cc2ccccc2)CCCCCC1.[Br-] [Compound 69A] ?
A. 3 to 10 µM

###

Answer each item with its documented IC50.
Assay System: NaV1.7 (Homo sapiens, UniProt Q15858)
Construct: expressed in transfected cells; host or cells: HEK293 (tetracycline-inducible)
Experimental Protocol: Automated patch clamp (Qube 384), external block of NaV1.7
Format: cell-based
Condition Notes: IC50, compound in external solution, HEK293 cells, read-out: Nav1.7 Extracellular Inhibition

Q. Can you share its IC50? I mean this molecule: CCCCNc1ccc(NC(=O)C[N+]2(Cc3ccccc3)CCCCCC2)cc1.O=C[O-] [Compound 41A, formate]
A. > 10 µM

Q. Param item = Cc1cccc(C)c1N1CCC([N+]2(Cc3ccccc3)CCCCCCC2)C1=O.[Br-] (stereo not drawn) [Compound 90A] ; retrieve measured IC50.
A. 3 to 10 µM

Q. Given the entry Cc1cccc(C)c1NC(=O)C[N+]1(Cc2ccccc2)CCCC(C(=O)NCC(C)C)C1.[Br-] (stereo not drawn) [Compound 58A] , report its measured IC50.
A. 3 to 10 µM

Q. What does the data say about its IC50? Entry: COC(=O)C1CC[N+](CC(=O)Nc2c(C)cccc2C)(Cc2ccccc2)CC1.[Br-] (stereo not drawn) [Compound 44A]
A. > 10 µM

Q. Would you kindly share the measured IC50 for CCC(=O)Oc1cccc(C)c1NC(=O)C[N+]1(Cc2ccccc2)CCCCCC1.[Br-] [Compound 80A] ?
A. > 10 µM

Q. Could you tell me which IC50 is on file for "Cc1cccc(C)c1NC(=O)C[N+]1(Cc2ccccc2)CCCC1" ?
A. > 10 µM

Q. // lookup IC50 for CCN(CC)C(=O)C1CCC[N+](CC(=O)Nc2c(C)cccc2C)(Cc2ccccc2)C1 (stereo not drawn) [Compound 66A]
A. > 10 µM

Q. Which measured IC50 value corresponds to COC(=O)c1ccc(C[N+]2(CC(=O)Nc3c(C)cccc3C)CCCCC2)cc1.[Br-] [Compound 36A] ?
A. > 10 µM

Q. Requested read-out: IC50. Entry: Cc1cccc(C)c1NC(=O)C[N+]1(Cc2ccccc2)CCCC(C(=O)N2CCCCC2)C1 (stereo not drawn) [Compound 63A]
A. 3 to 10 µM

Q. Give the measured IC50 of Cc1cccc(C)c1NC(=O)C[N+]1(Cc2ccccc2)CCCC(C(N)=O)C1.[Br-] (mixture of isomers) [Compound 53A] .
A. > 10 µM

Q. Query (molecule): COC(=O)c1cccc(C[N+]2(CC(=O)Nc3c(C)cccc3C)CCCCC2)c1.[Br-] [Compound 35A] ; field requested: IC50
A. > 10 µM

Q. Consider the molecule CC[N+](CC)(CCCc1ccccc1)CC(=O)Nc1c(C)cccc1C.[Br-] [Compound 86A] and give its measured IC50.
A. > 10 µM

Q. # input molecule: CCNC(=O)C1CCC[N+](CC(=O)Nc2c(C)cccc2C)(Cc2ccccc2)C1.[Br-] (stereo not drawn) [Compound 54A] ; wanted: its IC50
A. > 10 µM

Q. Value lookup for IC50; key = CNC(=O)C1CCC[N+](CC(=O)Nc2c(C)cccc2C)(Cc2ccccc2)C1 (stereo not drawn) [Compound 55A]
A. > 10 µM

Q. Recorded IC50 for "Cc1cccc(C)c1NC(=O)C[N+]1(Cc2ccccc2)CCCCC1" , please?
A. > 10 µM

Q. Sample Cc1cccc(C)c1N1CCCC([N+]2(Cc3ccccc3)CCCC2)C1=O.[Br-] (stereo not drawn) [Compound 91A] — what was its IC50?
A. > 10 µM

Q. What measured IC50 goes with CCCc1cccc(C)c1NC(=O)C[N+]1(Cc2ccccc2)CCCCCC1.[Br-] [Compound 75A] ?
A. 3 to 10 µM

Q. Fill in the blank: the reported IC50 of CC[N+](CC)(CCS(=O)(=O)c1c(C)cccc1C)Cc1ccccc1 [Compound 87A] is ____.
A. > 10 µM
